The origin of these recorded values is paper PMC2756588.

Molecular target: T1, Lsb1, P53281
T1 sequence (P53281 45-122, looked up): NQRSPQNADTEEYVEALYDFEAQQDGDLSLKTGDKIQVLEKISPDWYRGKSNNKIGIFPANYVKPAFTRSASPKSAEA
Assay: SPOT array
Details: median of control spots 388
Give measured SPOT intensity for each item. Keep answers brief.
Just the number, please, no unit after it.

Ask | Item under review: `YVRRRPRVRLEPLLS` . Reported SPOT intensity?
Reply | 13

Ask | Any idea what its SPOT intensity is? The binder is `GRSRLFPHSPLGRSS`
Reply | 0

Ask | Which SPOT intensity is listed for `PSRRDSLSIPRAVDA` ?
Reply | 1

Ask | Dear colleague, I am looking for the recorded SPOT intensity of the following binder: `SSSSSPPPLPTRRDH`
Reply | 463
